assay: Stability test in liver microsomes, human; format: in vitro ADME, humans; conditions: human liver microsomes 0.5 mg/mL, 1.0 μM substrate, up to 60 min; read-out: Metabolic half-life in human liver microsome ( T1/2, min)
Please go through the items and note down their half-life at 1 μM.
Give a bare numeral; the unit min is implied.

Entry under review: Cn1cc2c(n1)c(=O)n(-c1ccccc1Cl)c1nc(C(F)(F)F)ccc21 . Reported half-life at 1 μM?
258

Entry under review: Cn1cc2c(n1)c(=O)n(-c1cccc3[nH]ncc13)c1cc(Cl)ccc21 . Reported half-life at 1 μM?
722

###

System: SDMA in human colon cancer cell line HCT116
Test: Cell symmetric dimethylarginine (SDMA) test, In-cell Western, HCT116 (MTAP wild-type)
Assay type: cell-based
Conditions: Homo sapiens, HCT-116, 96 h, read-out: Cell 96 h SDMA inhibition (HCT116-MTAP+/+)
Text: MAT2A catalyzes the reaction of L-methionine and ATP to generate SAM, inorganic phosphonic acid, and inorganic diphosphonic acid. SAM is an important methyl donor, and is a substrate of arginine methyltransferase 5 (PRMT5). PRMT5 catalyzes SDMA modification of multiple proteins within a cell. The intracellular SDMA modification level was detected by ICW (In-cell Western), and the inhibition of the test compound on the enzymatic activity of intracellular MAT2A was indirectly reflected. […]
Please go through the items and note down their pIC50.
Just the number, please; pIC50 means minus log10 of the concentration in mol/L.

Entry under review: Cn1cc2c(n1)c(=O)n(-c1cccc3[nH]ncc13)c1nc(C(F)(F)F)ccc21 [Compound B181] . Reported pIC50?
6.32

Entry under review: CCn1cc2c(n1)c(=O)n(-c1cccnc1)c1cc(Cl)ccc21 [Compound B3] . Reported pIC50?
5.37

Entry under review: Cn1cc2c(n1)c(=O)n(-c1cccnc1)c1cc(C(F)(F)F)ccc21 [Compound B69] . Reported pIC50?
5.83

Entry under review: Cc1ncccc1-n1c(=O)c2nn(C3CC3)cc2c2ccc(C(F)(F)F)nc21 [Compound B211] . Reported pIC50?
5.99

Entry under review: Cc1ncccc1-n1c(=O)c2nn(C)cc2c2ccc(C(F)(F)F)nc21 [Compound B76] . Reported pIC50?
6.67

###

system: SDMA in HCT116-MTAP-knockout cell line; assay: Cell symmetric dimethylarginine (SDMA) test, In-cell Western, HCT116-MTAP-knockout; type: cell-based; conditions: Homo sapiens, 96 h, IC50 score class, read-out: Cell 96 h SDMA Inhibition (HCT116-MTAP−/−) (score)
attributeMeasured: IC50

Entry under review: Cn1cc2c(n1)c(=O)n(-c1ccc3[nH]cnc3c1)c1cc(Cl)ccc21 . Reported IC50?
1000 to 3000 nM

Entry under review: Cn1cc2c(n1)c(=O)n(-c1cccc(C(N)=O)c1)c1nc(C(F)(F)F)ccc21 . Reported IC50?
1000 to 3000 nM

Entry under review: CCn1cc2c(n1)c(=O)n(-c1cccc(O)c1)c1cc(Cl)ccc21 . Reported IC50?
200 to 1000 nM

Entry under review: Cc1ncccc1-n1c(=O)c2nn(C)cc2c2ccc(C3CC3)cc21 . Reported IC50?
< 200 nM

Entry under review: Cn1cc2c(n1)c(=O)n(-c1cccc3[nH]ncc13)c1cc(Cl)c(C#N)cc21 . Reported IC50?
< 200 nM

Entry under review: Cn1nc2c(=O)n(-c3cccnc3)c3cc(Cl)ccc3c2c1C(F)F . Reported IC50?
1000 to 3000 nM

Entry under review: Cc1ncccc1-n1c(=O)c2[nH]ncc2c2ccc(C3CC3)nc21 . Reported IC50?
< 200 nM

Entry under review: N#Cc1cc2c3c[nH]nc3c(=O)n(-c3cccc4[nH]ncc34)c2cc1Cl . Reported IC50?
< 200 nM
